- system_tested: EGFR T790M, L858R (amino acids 669-1011 Accession Number NP_005219.2) (Homo sapiens, UniProt P00533, L858R/T790M)
- Sequence (P00533 669-1011 T790M/L858R): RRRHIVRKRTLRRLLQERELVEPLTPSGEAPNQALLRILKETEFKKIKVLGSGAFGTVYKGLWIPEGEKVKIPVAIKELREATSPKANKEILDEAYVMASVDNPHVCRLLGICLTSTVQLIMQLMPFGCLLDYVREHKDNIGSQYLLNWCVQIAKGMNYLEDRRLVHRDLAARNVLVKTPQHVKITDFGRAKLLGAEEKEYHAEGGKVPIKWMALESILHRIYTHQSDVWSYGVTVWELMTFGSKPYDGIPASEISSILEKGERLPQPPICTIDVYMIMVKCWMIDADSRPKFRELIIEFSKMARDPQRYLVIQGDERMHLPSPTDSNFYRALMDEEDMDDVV
- assay_notes: KdELECT binding assay (Eurofins Discovery), EGFR T790M, L858R
- test_context: read-out: EGFR DM Kd
pKd: −log10 of the molar value.
Reported pKd values follow for various molecules
reported_property: pKd

INSERT INTO results (molecule, result) VALUES
  ('CC[C@@H]1C(=O)N(C)c2cnc(Nc3ccc(C(=O)NCCOCCOCCOCCOCCN(C)C/C=C/C(=O)N[C@@H]4CN(c5nc(Nc6cn(C)nc6OC)c6ncn(C)c6n5)C[C@H]4F)cc3OC)nc2N1C1CCCC1', '6.30 to 7.30'),
  ('C=CC(=O)Nc1cc(Nc2nccc(-c3cn(C)c4ccccc34)n2)c(OC)cc1N(C)CCN(C)CCCCCCCCNS(=O)(=O)c1ccc(Nc2ncc(Br)c(Nc3cccc(F)c3C(N)=O)n2)cc1', '> 7.30'),
  ('C=CC(=O)Nc1cc(Nc2nccc(-c3cn(C)c4ccccc34)n2)c(OC)cc1N(C)CCN(C)CCOCCOCCOCCOCCON(C)C(=O)N1N=C(c2cc(F)ccc2F)SC1(CCCN)c1ccccc1 (centres unmarked)', '> 7.30'),
  ('CC[C@@H]1C(=O)N(C)c2cnc(Nc3ccc(C(=O)NCCOCCOCCOCCOCCN(C)C/C=C/C(=O)Nc4cc(Nc5nccc(-c6cn(C)c7ccccc67)n5)c(OC)cc4N(C)CCN(C)C)cc3OC)nc2N1C1CCCC1', '> 7.30'),
  ('CC[C@@H]1C(=O)N(C)c2cnc(Nc3ccc(C(=O)NCCCN4CCN(CCCN(C)C/C=C/C(=O)N[C@@H]5CN(c6nc(Nc7cn(C)nc7OC)c7ncn(C)c7n6)C[C@H]5F)CC4)cc3OC)nc2N1C1CCCC1', '> 7.30');
